- TESTED_SYSTEM: P2Y purinoceptor 12 (Homo sapiens, UniProt Q9H244)
- Sequence (Q9H244 whole entry): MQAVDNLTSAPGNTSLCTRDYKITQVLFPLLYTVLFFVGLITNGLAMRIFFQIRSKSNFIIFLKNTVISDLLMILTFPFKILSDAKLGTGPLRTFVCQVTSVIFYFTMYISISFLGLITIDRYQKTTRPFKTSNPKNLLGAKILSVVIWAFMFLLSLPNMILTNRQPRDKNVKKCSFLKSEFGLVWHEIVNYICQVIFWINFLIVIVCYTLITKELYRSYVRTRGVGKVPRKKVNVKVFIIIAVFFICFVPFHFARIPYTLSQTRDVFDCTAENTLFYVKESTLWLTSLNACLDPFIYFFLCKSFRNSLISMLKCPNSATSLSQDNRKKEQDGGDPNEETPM
METRIC_NAME: EC50
Answers without a unit are incomplete; give the number and then its unit.

[in] Given the entry `[11CH3]Oc1ccc(Cl)c(C(=O)NCC23CC4(F)CC(F)(CC(F)(C4)C2)C3)c1` , what EC50 was observed with P2Y purinoceptor 12 (Homo sapiens, UniProt Q9H244)?
[out] 60 nM

###

- TESTED_SYSTEM: Mu-type opioid receptor (Homo sapiens, UniProt P35372)
- Sequence (P35372 whole entry): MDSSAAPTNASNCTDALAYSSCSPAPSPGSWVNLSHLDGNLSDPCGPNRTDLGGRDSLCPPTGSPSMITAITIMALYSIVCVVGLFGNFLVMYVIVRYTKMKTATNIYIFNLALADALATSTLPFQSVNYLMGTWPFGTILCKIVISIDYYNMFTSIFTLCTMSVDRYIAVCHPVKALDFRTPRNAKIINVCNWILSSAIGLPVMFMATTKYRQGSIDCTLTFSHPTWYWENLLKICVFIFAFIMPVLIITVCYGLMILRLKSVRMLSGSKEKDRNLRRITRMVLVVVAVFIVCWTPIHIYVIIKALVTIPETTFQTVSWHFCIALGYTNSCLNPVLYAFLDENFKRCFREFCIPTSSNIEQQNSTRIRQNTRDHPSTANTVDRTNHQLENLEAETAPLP
METRIC_NAME: IC50 (µM)
Output spec: scalar in µM, unitless text.

[in] State the recorded IC50 for this entry: `CC(C)OCCn1c2cc[nH]c2c(=O)[nH][11c]1=S`
[out] 1.2

###

- ASSAY_NAME: physchem
- CONDITIONS_USED: octanol/water
METRIC_NAME: logD
Enter the number alone.

[in] Please report the recorded logD for `CCOCCn1cc(C(=O)NC23CC4CC(CC(C4)C2)C3)c(=O)c2cccc(OC)c21` .
[out] 2.8

###

- TESTED_SYSTEM: Amine oxidase [flavin-containing] B (Homo sapiens)
- Sequence (P27338 whole entry): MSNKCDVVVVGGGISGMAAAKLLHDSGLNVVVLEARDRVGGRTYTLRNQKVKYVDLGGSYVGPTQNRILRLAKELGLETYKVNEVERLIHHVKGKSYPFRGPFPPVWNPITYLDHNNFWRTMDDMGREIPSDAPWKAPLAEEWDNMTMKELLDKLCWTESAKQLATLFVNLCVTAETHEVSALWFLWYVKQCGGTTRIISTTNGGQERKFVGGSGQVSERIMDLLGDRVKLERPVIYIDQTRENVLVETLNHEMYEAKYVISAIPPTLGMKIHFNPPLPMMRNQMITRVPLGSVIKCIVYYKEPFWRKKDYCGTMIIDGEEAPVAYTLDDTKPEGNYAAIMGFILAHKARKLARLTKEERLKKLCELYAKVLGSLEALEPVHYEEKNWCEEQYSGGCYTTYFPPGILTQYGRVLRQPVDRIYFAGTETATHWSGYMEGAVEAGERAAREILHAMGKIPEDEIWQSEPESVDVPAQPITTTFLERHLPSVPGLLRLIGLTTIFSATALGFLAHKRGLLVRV
METRIC_NAME: pIC50
Would you please state pIC50, meaning minus log10 of the concentration in mol/L, as a bare number?

[in] Form field: pIC50 recorded for `N#CCCn1nc(-c2ccc(OCc3ccccc3)cc2)o[11c]1=O` with Amine oxidase [flavin-containing] B (Homo sapiens) (enter value)
[out] 8.40

###

- ASSAY_NAME: in vivo
- CONDITIONS_USED: CD-1, mouse
METRIC_NAME: tissue uptake at 5 min
Write down the value, and be sure its unit follows.

[in] Quick one: tissue uptake at 5 min of `O=C(NCCC(c1ccccc1)c1ccccc1)c1ccc([18F])nc1` ?
[out] 5.24 %ID/g

###

- TESTED_SYSTEM: Prostaglandin G/H synthase 2 (Homo sapiens, UniProt P35354)
- Sequence (P35354 whole entry): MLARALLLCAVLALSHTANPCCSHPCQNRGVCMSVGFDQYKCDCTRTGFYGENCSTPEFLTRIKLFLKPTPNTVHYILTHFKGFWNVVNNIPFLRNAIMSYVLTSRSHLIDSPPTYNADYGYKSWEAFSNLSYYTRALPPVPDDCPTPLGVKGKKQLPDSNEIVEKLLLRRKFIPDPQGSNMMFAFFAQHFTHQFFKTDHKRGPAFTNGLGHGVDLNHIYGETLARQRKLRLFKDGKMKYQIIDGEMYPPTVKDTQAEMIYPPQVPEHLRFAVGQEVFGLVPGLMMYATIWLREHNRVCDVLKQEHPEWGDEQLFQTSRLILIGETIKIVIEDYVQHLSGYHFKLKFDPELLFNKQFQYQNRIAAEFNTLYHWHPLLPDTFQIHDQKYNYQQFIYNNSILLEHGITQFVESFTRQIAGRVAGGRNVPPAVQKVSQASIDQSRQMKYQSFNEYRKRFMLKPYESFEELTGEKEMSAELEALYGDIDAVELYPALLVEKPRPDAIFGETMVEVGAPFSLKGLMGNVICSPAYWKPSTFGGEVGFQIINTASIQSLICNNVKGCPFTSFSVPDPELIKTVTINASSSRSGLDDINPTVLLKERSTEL
METRIC_NAME: Ki (nM)
State just the number; it will be interpreted in nM.

[in] # input compound: `CS(=O)(=O)c1ccc(-c2ccsc2-c2ccc(F)cc2)cc1` ; wanted: its Ki
[out] 250

###

- TESTED_SYSTEM: Melatonin receptor type 1A (Homo sapiens)
- Sequence (P48039 whole entry): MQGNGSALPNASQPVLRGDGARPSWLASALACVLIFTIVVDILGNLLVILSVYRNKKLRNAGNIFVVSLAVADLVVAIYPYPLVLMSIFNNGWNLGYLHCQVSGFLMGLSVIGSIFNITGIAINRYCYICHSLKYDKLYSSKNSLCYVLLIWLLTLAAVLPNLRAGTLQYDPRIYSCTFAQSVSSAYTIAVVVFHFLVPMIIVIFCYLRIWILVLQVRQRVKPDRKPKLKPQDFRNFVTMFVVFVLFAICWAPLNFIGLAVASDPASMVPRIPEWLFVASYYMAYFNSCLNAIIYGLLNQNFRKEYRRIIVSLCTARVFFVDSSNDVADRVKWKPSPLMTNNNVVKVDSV
METRIC_NAME: Ki

[in] Please look up its Ki: `O=C(c1ccc([18F])cc1)N(Cc1ccccc1)C1CCCCC1`
[out] 0.09 µM
